# assay.target: T1, human CD73 on cells (CD73-transfected HEK cells; native on PBMCs; OCI-AML3 cells) (human, UniProt P21589 27-549)
# T1 construct: also called NT5E; gene ID 4907
# T1 sequence: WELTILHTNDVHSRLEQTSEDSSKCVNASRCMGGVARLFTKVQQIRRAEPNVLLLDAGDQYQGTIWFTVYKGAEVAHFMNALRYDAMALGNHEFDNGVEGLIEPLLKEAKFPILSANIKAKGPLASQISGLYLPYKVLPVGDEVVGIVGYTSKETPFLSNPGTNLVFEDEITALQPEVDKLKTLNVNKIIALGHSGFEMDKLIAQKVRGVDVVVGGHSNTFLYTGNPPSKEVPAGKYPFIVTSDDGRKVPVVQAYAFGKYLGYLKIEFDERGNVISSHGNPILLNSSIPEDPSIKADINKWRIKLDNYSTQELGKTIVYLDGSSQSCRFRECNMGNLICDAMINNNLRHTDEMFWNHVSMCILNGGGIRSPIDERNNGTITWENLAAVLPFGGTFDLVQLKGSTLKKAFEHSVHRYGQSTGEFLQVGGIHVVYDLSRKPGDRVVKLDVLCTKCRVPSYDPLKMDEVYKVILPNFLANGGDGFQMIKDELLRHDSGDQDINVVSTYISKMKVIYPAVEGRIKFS
# test.method.notes: flow cytometry, human CD73-expressing cells; competitor: human IgG hcAb SB143
Recorded measurements of percent inhibition of binding, one per entry
Quick note: unit goes after the number.

// below: answered binders
>>> reported_result("SB139 rabbit IgG hcAb (Fc fusion, not shown: hinge and Fc-domains of rabbit IgG) heavy: QVQLQESGGGLVQAGGSLRLSCAASENIFNIYGMGWYRQAPGKLRDLVAKITSGGRTTYADSVKGRFTISGDNAKNTVYLQMNSLKPEDTAVYYCNSYYYWGQGTQVTVSS")
"77%"
>>> reported_result("SB96 rabbit IgG hcAb (Fc fusion, VHH fused upstream of hinge and Fc of rabbit IgG; also called Nb-rbIgG hcAb SB96; not shown: hinge and Fc-domains of rabbit IgG) heavy: DVQLQASGGGLVQPGGSLRLSCTASGFTLDYLSIGWFRQVPGKEREGVSCINSSGGSTNYADSLKGRLTISRDNAKNTVYLQMNSLKPEDTAVYYCAAHKYYYCSNKVEVFDYWGQGTPVTVSS")
"70%"
>>> reported_result("SB141 rabbit IgG hcAb (Fc fusion, not shown: hinge and Fc-domains of rabbit IgG) heavy: QVQLVESGGGLVQPGGSLRLSCAASGFTFINYHMSWLRQAPGKGLEWVSEIHSRGDITSYTNSVKGRFTISRDNAKNTLYLQMNSLKFDDTAVYYCARSRDLFNEGEYDYWGRGTQVTVSS")
"66%"

q: Given the binder SB143 rabbit IgG hcAb (Fc fusion, not shown: hinge and Fc-domains of rabbit IgG) heavy: QVQLVESGGGLVQAGGSLRLSCAASGRTFSRSTMGWFRQAPGKERVFVAAIRWIGGTTTYGDSVKGRFTISVDNAKNTLYLQMNSLKPEDTAVYYCAATAGGPYYLGGRDILYDYWGQGTQVTVSS , write its reported percent inhibition of binding.
a: 91%

q: Given the binder SB121 rabbit IgG hcAb (Fc fusion, not shown: hinge and Fc-domains of rabbit IgG) heavy: QVQLQESGGGLVQAGGSLRLSCAASGSIGSIIAMGWYRQGPGKQRELVARMFTDDGSTNYDDSVKGRFTISRDSAGTTVYLQMNSLKPEDTAVYYCNAQRRWNAYWGPGTQVTVSS , write its reported percent inhibition of binding.
a: 85%

q: Given the binder SB116 rabbit IgG hcAb (Fc fusion, also called SB116-rbFc; dimeric SB116 Fc construct; not shown: hinge and Fc-domains of rabbit IgG) heavy: QVKLQESGGGRVQTGGSLRLSCAASGISFSITTMYWYRQAPGEQRQLVALITDRGNTYYVDSVKGRFTISRDDSKNTVYLQMNDLKPEDTAVYFCNSIPGNDWGQGTQVTVSS , write its reported percent inhibition of binding.
a: 65%
